Test system: MTOR
TEST_PARAMETERS: concentration: 1 μM, replicates: in singlicate; n = 1
Class key for %Inh values: lower range = under 8%, middle range = from 8% up to 20%, upper range = 20% and over

INSERT INTO measurements (given_smiles, class_assignment) VALUES
  ('Nc1nc(-c2ccc3c(N)n[nH]c3c2)cc(N2CCC[C@@H](C(=O)Nc3ccccc3)C2)n1.O=C(O)C(F)(F)F.O=C(O)C(F)(F)F', 'middle range'),
  ('CSc1ccc(NC2=C(c3ccccc3Cl)C(=O)NC2=O)cc1', 'middle range'),
  ('Cn1ccc2ncnc(Oc3ccc(NC(=O)Nc4cccnc4)c(Cl)c3)c21', 'lower range'),
  ('CSc1nn2c(=O)cc(N3CCOCC3)nc2n1Cc1cccc(Cl)c1Cl', 'upper range'),
  ('CN1CCC(n2cnc(-c3ccc(F)cc3)c2-c2ccnc(NC3CCNCC3)n2)CC1', 'lower range'),
  ('Fc1ccc(-c2ncn(CCCNCc3ccccc3)c2-c2ccncc2)cc1', 'middle range'),
  ('O=C(Nc1ccccc1)Nc1ccc(Oc2ccc3nccn3n2)cc1', 'middle range'),
  ('Fc1cccc(COc2ccc(Nc3ncnc4cc[nH]c34)cc2Cl)c1', 'lower range'),
  ('O=c1cc(N2CCOCC2)nc2n(Cc3cccc(Cl)c3)ccn12', 'upper range'),
  ('Nc1n[nH]c2nnc(-c3ccccc3)cc12', 'middle range'),
  ('Nc1nc(-c2ccccn2)c(-c2ccnc3ccccc23)s1', 'upper range'),
  ('Cl.Cn1ccc(-c2cccc(Nc3ccnc4cc(-c5nccs5)ccc34)c2)n1', 'upper range'),
  ('CCc1nc(-c2cccc(N(C)S(=O)(=O)c3ccccc3)c2)c(-c2ccnc(Nc3ccc(N4CCN(C(C)=O)CC4)nc3)n2)s1', 'lower range'),
  ('CC(C)N1CCC(n2cnc(-c3ccc(F)cc3)c2-c2ccnc(N)n2)CC1', 'upper range'),
  ('O=C(Nc1n[nH]c2nc(-c3ccco3)c(Br)cc12)c1ccc(CN2CCCC2)cc1.O=C(O)[C@H](O)[C@@H](O)C(=O)O', 'lower range');

* * *

Test system: DAPK2
TEST_PARAMETERS: concentration: 1 μM, replicates: in singlicate; n = 1
QUANTITY: %Inh (%)

INSERT INTO measurements (molecule, unit_label, observed_result) VALUES
  ('CSc1ccc(NC2=C(c3ccccc3Cl)C(=O)NC2=O)cc1 [SB-342411]', '%', 16),
  ('O=C(NCCCN1CCCC1=O)c1cnc(NCc2cc(Cl)ccc2Cl)nc1NC1CCNCC1', '%', 0),
  ('CS(=O)(=O)CCNCc1nc(-c2ccc3ncnc(Nc4ccc(OCc5cccc(F)c5)c(Cl)c4)c3c2)cs1.Cl [GW583340]', '%', 0),
  ('COc1cc2ncnc(Nc3ccc(OCc4ccccc4Br)c(Cl)c3)c2cc1OC.Cl [GI261590]', '%', 0),
  ('COC(=O)c1c(-c2ccccc2)c2cc(Cl)ccc2c(=O)n1Cc1ccc(S(C)(=O)=O)cc1', '%', 0),
  ('Nc1nc(-c2cccnc2)c(-c2ccnc3ccccc23)s1 [GW684083]', '%', 0),
  ('COc1cc2c(Nc3cccc(NC(=O)c4ccccc4)c3)ncnc2cc1OCCCN1CCOCC1 [GSK223810]', '%', 15),
  ('COc1ccc(-c2oc3ncnc(N)c3c2-c2ccc(OC)cc2)cc1 [SB-589132]', '%', 0),
  ('COc1ccc(NC(=O)c2ccc(-c3cc(-c4nnc(C)o4)ccc3C)cc2)cc1 [GW595885]', '%', 0),
  ('COc1ccc(Nc2nccc(N3CCC(NC(=O)c4cccc(NC(C)=O)c4)C3)n2)cc1 (centres unmarked) [GSK1379732]', '%', 13),
  ('O=C(Nc1ccccc1F)NC1CCN(c2ccnc(Nc3ccc(F)cc3)n2)C1 (centres unmarked) [GSK1379722]', '%', 0),
  ('CCC(CC)(CC)n1cnc2c(N)ncnc21 [SKF-97620]', '%', 9),
  ('O=C(Nc1ccccc1)Nc1ccc(Oc2ccc3nccn3n2)cc1', '%', 1),
  ('FC(F)(F)c1ccc(-c2cc(-c3c[nH]nc3-c3ccccn3)ccn2)cc1 [GW599550]', '%', 16);

* * *

Tested on: MST1
Construct: gene STK4
TEST_PARAMETERS: concentration: 1 μM, replicates: in singlicate; n = 1
QUANTITY: %Inh (%)

INSERT INTO measurements (molecule, subject_of_test, quantity, unit_label, observed_result) VALUES
  ('CN1CCC(n2cnc(-c3ccc(F)cc3)c2-c2ccnc(NC3CCNCC3)n2)CC1 [SB-229482]', 'MST1', '%Inh', '%', 3),
  ('O=C(Nc1ccccc1)Nc1ccc(Oc2ccc3nccn3n2)cc1', 'MST1', '%Inh', '%', 0),
  ('CNc1nccc(-c2c(-c3ccc(F)cc3)ncn2CCCN2CCOCC2)n1 [SB-222516]', 'MST1', '%Inh', '%', 0),
  ('Fc1cccc(COc2ccc(Nc3ncnc4cc[nH]c34)cc2Cl)c1', 'MST1', '%Inh', '%', 16),
  ('Cn1ccc2ncnc(Oc3ccc(NC(=O)Nc4cccnc4)c(Cl)c3)c21', 'MST1', '%Inh', '%', 12),
  ('OCCOCCn1ccc2ncnc(Nc3ccc(Oc4cccc(Cl)c4)c(Cl)c3)c21', 'MST1', '%Inh', '%', 0),
  ('Fc1ccc(-c2ncn(CCCNCc3ccccc3)c2-c2ccncc2)cc1', 'MST1', '%Inh', '%', 2);

* * *

System: PRKG1
TEST_PARAMETERS: concentration: 1 μM, replicates: in singlicate; n = 1
Form field: %Inh (one value per entry).
QUANTITY: %Inh (%)

INSERT INTO measurements (compound, observed_result) VALUES
  ('Fc1ccc(Nc2nccc(-c3c(-c4ccc(Cl)cc4)nn4ncccc34)n2)cc1F [GW829058]', 3),
  ('Oc1ccc2ncnc(Nc3ccc(OCc4ccccc4)cc3)c2c1 [GI262866]', 0),
  ('COC(=O)c1c(-c2ccccc2)c2cc(Cl)ccc2c(=O)n1Cc1ccc(S(C)(=O)=O)cc1', 0);

* * *

System: FGFR4
TEST_PARAMETERS: concentration: 1 μM, replicates: in singlicate; n = 1
QUANTITY: %Inh (%)

INSERT INTO results (given_smiles, subject_of_test, quantity, observed_result) VALUES
  ('O=c1cc(N2CCOCC2)nc2n(Cc3cccc(Cl)c3)ccn12', 'FGFR4', '%Inh', 5),
  ('Fc1ccc(Nc2nccc(-c3c(-c4ccc(Cl)cc4)nn4ncccc34)n2)cc1F', 'FGFR4', '%Inh', 5),
  ('Cl.c1ccc(Cn2ncc3cc(Nc4ncnc5ccccc45)ccc32)cc1', 'FGFR4', '%Inh', 5);

* * *

System: CAMK2G
TEST_PARAMETERS: concentration: 1 μM, replicates: in singlicate; n = 1
Form field: %Inh (one value per entry).
QUANTITY: %Inh (%)

INSERT INTO results (given_smiles, quantity, observed_result) VALUES
  ('Nc1nc(-c2cccnc2)c(-c2ccnc3ccccc23)s1', '%Inh', 27),
  ('Nc1nccc2scc(-c3ccc4c(c3)CCN4C(=O)Cc3cc(F)ccc3F)c12', '%Inh', 23),
  ('Cc1ccc(C)c(NC(=O)NCCNc2ccnc(Nc3ccc(F)cc3)n2)c1', '%Inh', 21),
  ('Nc1nc(-c2ccccn2)c(-c2ccnc3ccccc23)s1', '%Inh', 20),
  ('CSc1nn2c(=O)cc(N3CCOCC3)nc2n1Cc1cccc(Cl)c1Cl', '%Inh', 25);

* * *

The listing below reports Kd for compounds tested on CSNK1D.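 Note: kd values determined as follow-up on hits from a single-replicate KINOMEscan panel screen.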
QUANTITY: Kd (nM)

INSERT INTO results (given_smiles, subject_of_test, quantity, observed_result) VALUES
  ('CCc1nc(-c2cccc(C)c2)c(-c2ccnc(NC(=O)c3ccccc3)c2)s1', 'CSNK1D', 'Kd', 690),
  ('Nc1nc(-c2ccccn2)c(-c2ccnc3ccccc23)s1', 'CSNK1D', 'Kd', 1800),
  ('Fc1ccc(-c2ncn(CCCNCc3ccccc3)c2-c2ccncc2)cc1', 'CSNK1D', 'Kd', 47),
  ('CN1CCC(n2cnc(-c3ccc(F)cc3)c2-c2ccnc(NC3CCNCC3)n2)CC1', 'CSNK1D', 'Kd', 89);

* * *

Tested on: DMPK
TEST_PARAMETERS: concentration: 1 μM, replicates: in singlicate; n = 1
QUANTITY: %Inh (%)

INSERT INTO assay_data (compound, subject_of_test, quantity, observed_result) VALUES
  ('COc1cc2c(Nc3cccc(NC(=O)c4ccccc4)c3)ncnc2cc1OCCCN1CCOCC1 [GSK223810]', 'DMPK', '%Inh', 0),
  ('CS(=O)(=O)CCNCc1ccc(-c2ccc3ncnc(Nc4ccc(OCc5ccccc5)c(Cl)c4)c3c2)o1.Cl [GW574783]', 'DMPK', '%Inh', 16),
  ('Fc1ccc(Nc2nccc(-c3c(-c4ccc(Cl)cc4)nn4ncccc34)n2)cc1F [GW829058]', 'DMPK', '%Inh', 21),
  ('Cc1ccc(O)cc1Nc1cc(C(F)(F)F)nc2ccc(-c3ccncc3)cc12 [GW630823]', 'DMPK', '%Inh', 0),
  ('Nc1nc(-c2ccc3c(N)n[nH]c3c2)cc(N2CCC[C@@H](C(=O)Nc3ccccc3)C2)n1.O=C(O)C(F)(F)F.O=C(O)C(F)(F)F [GSK2288359]', 'DMPK', '%Inh', 0),
  ('COc1ccc(NC(=O)c2ccc(-c3cc(-c4nnc(C)o4)ccc3C)cc2)cc1 [GW595885]', 'DMPK', '%Inh', 0),
  ('Clc1cccc(-c2nc(Nc3ccncc3)c3ccccc3n2)c1 [GW873004]', 'DMPK', '%Inh', 4),
  ('OCCOCCn1ccc2ncnc(Nc3ccc(Oc4cccc(Cl)c4)c(Cl)c3)c21', 'DMPK', '%Inh', 0),
  ('CCCc1ccc(S(=O)(=O)NC2CCN(c3ccnc(Nc4ccc(OC)cc4)n3)C2)cc1 (stereo not shown) [GSK1379737]', 'DMPK', '%Inh', 0),
  ('CC(C)(C)c1ccc(-n2cnc3c(N)ncnc32)cc1 [SKF-97263]', 'DMPK', '%Inh', 0),
  ('CC(C)(C)OC(=O)NC1CCCN(c2cc(-c3ccc4c(N)n[nH]c4c3)nc(N)n2)C1 (stereo not shown) [GSK2286096]', 'DMPK', '%Inh', 0),
  ('CN1c2ccc(-c3ccc(C(=O)NCCO)cc3)cc2-c2[nH]ncc2S1(=O)=O', 'DMPK', '%Inh', 0),
  ('CCc1nc(-c2cccc(C)c2)c(-c2ccnc(NC(=O)c3ccccc3)c2)s1', 'DMPK', '%Inh', 0),
  ('CC(=O)Nc1n[nH]c2ncc(-c3ccccc3)cc12 [SB-548492]', 'DMPK', '%Inh', 0),
  ('COc1cc2ncnc(Nc3ccc(OCc4ccccc4Br)c(Cl)c3)c2cc1OC.Cl [GI261590]', 'DMPK', '%Inh', 0),
  ('COC(=O)c1cccc(NC(=O)NCCNc2ccnc(Nc3ccc(F)cc3)n2)c1 [GSK1379883]', 'DMPK', '%Inh', 0),
  ('Cn1ccc2ncnc(Nc3ccc(Oc4cccc(Cl)c4)c(Cl)c3)c21', 'DMPK', '%Inh', 0),
  ('Cc1cc(N2CCC(NS(=O)(=O)c3ccc(F)cc3)CC2)nc(Nc2cccc(C#N)c2)n1.O=C(O)C(F)(F)F [GSK1653537]', 'DMPK', '%Inh', 0),
  ('Nc1n[nH]c2nnc(-c3ccccc3)cc12 [SB-517389]', 'DMPK', '%Inh', 0),
  ('Cl.Fc1ccccc1COc1ccc(Nc2ncnc3ccc(-c4nnc(C(F)(F)F)o4)cc23)cc1Cl [GW424170]', 'DMPK', '%Inh', 0),
  ('Nc1nc(-c2ccccn2)c(-c2ccnc3ccccc23)s1 [GW548057]', 'DMPK', '%Inh', 0),
  ('CNc1nccc(-c2c(-c3ccc(F)cc3)ncn2CCCN2CCOCC2)n1 [SB-222516]', 'DMPK', '%Inh', 7);

Provenance of the data: paper PMC5540273
